Biological target: human cathepsin F (Homo sapiens)
Sequence (Q9UBX1 271-484): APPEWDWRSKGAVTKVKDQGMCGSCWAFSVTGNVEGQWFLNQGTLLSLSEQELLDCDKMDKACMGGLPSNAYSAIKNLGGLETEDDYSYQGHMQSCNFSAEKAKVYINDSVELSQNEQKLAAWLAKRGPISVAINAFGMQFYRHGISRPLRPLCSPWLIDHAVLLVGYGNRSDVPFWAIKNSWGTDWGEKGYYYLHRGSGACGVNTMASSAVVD
Assay: Cathepsin F Assay
Format: biochemical
Settings: IP from dose response curve; Z-Phe-Arg-AMC substrate, pH 5.5; read-out: hCat F (IP (nM))
Method: Serial dilutions (1/3) from 500 μM down to 0.025 μM of test compounds were prepared in dimethyl sulfoxide (DMSO). Then 0.5 μL of DMSO from each dilution were added to 18.75 μL of assay buffer (MES, 50 mM (pH 5.5); EDTA, 2.5 mM; DTT, 2.5 mM and 10% DMSO) containing human cathepsin F (10 nM) in assay buffer solution. […] Percent of inhibition were calculated by fitting experimental values to standard mathematical model for dose response curve.

[
  {
    "structure_notation": "N#CC1(NC(=O)[C@@H]2CCCC[C@H]2c2nn(-c3cnc(O)nc3)cc2-c2ccc(N3CCS(=O)(=O)CC3)cc2)CC1",
    "target_system": "human cathepsin F (Homo sapiens)",
    "unit_tag": "nM",
    "IC50": 2530
  },
  {
    "structure_notation": "CN=S1(=O)CCN(c2ccc(-c3cn(-c4ccc(F)cn4)nc3[C@@H]3CC(F)(F)CC[C@H]3C(=O)NC3(C#N)CC3)cc2)CC1",
    "target_system": "human cathepsin F (Homo sapiens)",
    "unit_tag": "nM",
    "IC50": 3670
  },
  {
    "structure_notation": "N#CC1(NC(=O)[C@@H]2CCCC[C@H]2c2nn(-c3ncccc3F)cc2-c2ccc(N3CCS(=O)(=O)CC3)cc2)CC1",
    "target_system": "human cathepsin F (Homo sapiens)",
    "unit_tag": "nM",
    "IC50": 3060
  },
  {
    "structure_notation": "N#CC1(NC(=O)[C@@H]2CC(F)(F)CC[C@H]2c2nn(-c3ccc(F)cc3)c(CO)c2-c2ccc(N3CCS(=O)(=O)CC3)cc2)CC1",
    "target_system": "human cathepsin F (Homo sapiens)",
    "unit_tag": "nM",
    "IC50": 125
  },
  {
    "structure_notation": "CS(=O)(=O)N1CCN(C(=O)c2ccc(-c3cn(-c4ccc(F)cc4)nc3[C@@H]3CCCC[C@H]3C(=O)NC3(C#N)CC3)cc2)CC1",
    "target_system": "human cathepsin F (Homo sapiens)",
    "unit_tag": "nM",
    "IC50": 2350
  },
  {
    "structure_notation": "N#CC1(NC(=O)[C@H]2CC(F)(F)CC[C@@H]2c2nn(-c3ccc(F)cc3)cc2-c2ccc(N3CCS(=O)(=O)CC3)cc2)CC1",
    "target_system": "human cathepsin F (Homo sapiens)",
    "unit_tag": "nM",
    "IC50": 1050
  }
]
